src = patent US20120100989A1

Experiment: log P by HPLC on reversed-phase columns (C 18), EEC directive 79/831 Annex V.A8
Assay type: physicochemical
Conditions: pH 2.7
I'd appreciate it if you could supply log P values for the items below.

Suppose we examine the compound COc1cccc(OC)c1C1=NOC(=O)C1=Cc1cccs1 ; what log P value has been reported?
2.79

Moving on to the next compound: COc1ccc(C2=NOC(=O)C2=Cc2ccc(Br)s2)cc1
3.77

Moving on to the next compound: Cc1ccccc1C1=NOC(=O)C1=Cc1cccs1
2.98

Moving on to the next compound: COc1cccc(C2=NOC(=O)C2=Cc2cc(-c3ccccc3)cs2)c1
4.27

Please report log P for every entry that follows.
1. O=C1ON=C(c2cc(F)ccc2Cl)C1=Cc1ccc([N+](=O)[O-])s1
2. O=C1ON=C(c2cccc(C(F)(F)F)c2)C1=Cc1cccs1
3. O=C1ON=C(c2ccc(F)cc2)C1=Cc1cc(Br)c(Br)s1
4. Cc1c(C=C2C(=O)ON=C2c2ccccc2Cl)sc2ccccc12

[3.50, 3.61, 4.45, 4.31]
